Reference source for all entries: patent US12257247B2

# target: VAV1 (Homo sapiens, UniProt P15498+Q96SW2)
# Construct: A heterozygous VAV1 C-terminal HiBiT knock-in pool was generated at Monte Rosa Therapeutics from a clonal Jurkat cell; endogenous in cells; host or cells: Jurkat clone stably expressing LgBiT, homozygous GSPT1-G575N; heterozygous VAV1-HiBiT knock-in pool
# test.protocol: VAV1 degradation activity, VAV1-HiBiT knock-in Jurkat luminescence assay (Example A, Table 1)
# Format: cell-based
# condition.notes: VAV1-HiBiT knock-in Jurkat cells, luminescence read at 6 and 24 hours; read-out: VAV1 DC50
The compounds listed here are annotated with their DC50.
measured.parameter: DC50

INSERT INTO assay_data (compound, measured_parameter, result) VALUES
  ('O=C1CCC(c2cccc(-c3ccc(Cc4ncco4)nc3)c2Cl)C(=O)N1 (centres unmarked)', 'DC50', '261 nM'),
  ('O=C1CCC(c2cccc(-c3ccc(Cc4cccs4)cc3)c2Cl)C(=O)N1 (centres unmarked)', 'DC50', '17.2 nM'),
  ('O=C1CCC(c2cccc(-c3ccc(N4Cc5ccccc5C4=O)cc3)c2Cl)C(=O)N1 (centres unmarked)', 'DC50', '1560 nM'),
  ('O=C1CCC(c2cccc(-c3ccc(CN4C(=O)CCCC45CC5)nc3)c2Cl)C(=O)N1 (centres unmarked)', 'DC50', '262 nM'),
  ('O=C1CCC(c2cccc(-c3ccc(CN4CCC5CC5C4=O)cc3)c2Cl)C(=O)N1 (centres unmarked)', 'DC50', '11.1 nM'),
  ('CN1CCC[C@@H](c2ccc(-c3cccc(C4CCC(=O)NC4=O)c3Cl)cc2)C1=O (some centres unmarked)', 'DC50', '17 nM'),
  ('O=C1CCC(c2cccc(-c3ccc(N4C(=O)CCCC45CCC5)cc3)c2Cl)C(=O)N1 (centres unmarked)', 'DC50', '1.96 nM'),
  ('O=C1CCC(c2cccc(-c3ccc(Cc4cnccn4)cc3)c2Cl)C(=O)N1 (centres unmarked)', 'DC50', '14.8 nM');

* * *

// reported DC50 for each item listed
# target: VAV1 (Homo sapiens, UniProt P15498+Q96SW2)
# Construct: A heterozygous VAV1 C-terminal HiBiT knock-in pool was generated at Monte Rosa Therapeutics from a clonal Jurkat cell; endogenous in cells; host or cells: Jurkat clone stably expressing LgBiT, homozygous GSPT1-G575N; heterozygous VAV1-HiBiT knock-in pool
# test.protocol: VAV1 degradation activity, VAV1-HiBiT knock-in Jurkat luminescence assay (Example A, Table 1)
# Assay type: cell-based
# condition.notes: VAV1-HiBiT knock-in Jurkat cells, luminescence read at 6 and 24 hours; read-out: VAV1 DC50 (nM), class
# Procedure: Cells were plated at 10,000 cells per well using Multiflo (BioTek) or Multi Drop Combi (Thermo Fisher) in 384-well white solid bottom plates (Corning, 3570BC) in 25 ul volume in RPMI 1640 media (Thermo Fischer, 22400105) containing 10% FBS (Corning, 35-075-CV), 1% Penicillin/Streptomycin (ThermoFisher Scientific, 15140-122), and 1% Endurazine (Nano-Glo Endurazine Live Cell Substrate (Promega, N2571)). Cells were incubated for ˜16 hours at 37° C., 5% CO2. […]
measured.parameter: DC50

INSERT INTO results (compound, measured_parameter, result) VALUES
  ('COc1cc(-c2cccc(C3CCC(=O)NC3=O)c2Cl)ccc1C(F)F (centres unmarked)', 'DC50', '> 1000 nM'),
  ('O=C1CCC(c2cccc(-c3cnc(N4C(=O)CCC45CCC5)c(F)c3)c2Cl)C(=O)N1 (centres unmarked)', 'DC50', '≤ 100 nM'),
  ('Cc1cc(-c2cccc(C3CCC(=O)NC3=O)c2Cl)ccc1N (centres unmarked)', 'DC50', '≤ 100 nM'),
  ('O=C1CCC(c2cccc(-c3ccc(-n4cc(F)ccc4=O)cc3)c2Cl)C(=O)N1 (centres unmarked)', 'DC50', '≤ 100 nM'),
  ('O=C1CCC(c2cccc(-c3ccc(N4C(=O)CCC45CC5)nc3)c2Cl)C(=O)N1 (centres unmarked)', 'DC50', '100 to 1000 nM'),
  ('O=C1CCC(c2cccc(-c3ccc(CN4C(=O)CCCC4C(F)(F)F)cc3)c2Cl)C(=O)N1 (centres unmarked)', 'DC50', '≤ 100 nM'),
  ('O=C1CCC(c2cccc(-c3ccc(Cc4ncco4)c(F)c3)c2Cl)C(=O)N1 (centres unmarked)', 'DC50', '≤ 100 nM'),
  ('Cn1ccc(OCc2ccc(-c3cccc(C4CCC(=O)NC4=O)c3Cl)cc2)n1 (centres unmarked)', 'DC50', '≤ 100 nM');

* * *

# target: VAV1 (Homo sapiens, UniProt P15498+Q96SW2)
# Construct: A heterozygous VAV1 C-terminal HiBiT knock-in pool was generated at Monte Rosa Therapeutics from a clonal Jurkat cell; endogenous in cells; host or cells: Jurkat clone stably expressing LgBiT, homozygous GSPT1-G575N; heterozygous VAV1-HiBiT knock-in pool
# test.protocol: VAV1 degradation activity, VAV1-HiBiT knock-in Jurkat luminescence assay (Example A, Table 1)
# Type: cell-based
# condition.notes: Jurkat, VAV1-HiBiT knock-in Jurkat cells, luminescence read at 6 and 24 hours; read-out: VAV1 Dmax %, class
measured.parameter: Dmax

INSERT INTO measurements (compound, measured_parameter, result) VALUES
  ('N#CC1(CN2C(=O)Cc3cc(-c4cccc(C5CCC(=O)NC5=O)c4Cl)ccc32)CC1 (centres unmarked) [Compound 390]', 'Dmax', '60 to 90%'),
  ('CN1CC(=O)N(c2ccc(-c3cccc(C4CCC(=O)NC4=O)c3Cl)cc2)c2cncnc21 (centres unmarked) [Compound 326]', 'Dmax', '> 90%'),
  ('Cc1ccn(C)c(=O)c1-c1ccc(-c2cccc(C3CCC(=O)NC3=O)c2Cl)cc1 (centres unmarked) [Compound 448]', 'Dmax', '> 90%'),
  ('O=C1CCC(c2cccc(-c3ccc(CN4Cc5nccn5CC4=O)cc3)c2Cl)C(=O)N1 (centres unmarked) [Compound 276]', 'Dmax', '60 to 90%'),
  ('CC1CCN(Cc2ccc(-c3cccc(C4CCC(=O)NC4=O)c3Cl)cc2)C1=O (centres unmarked) [Compound 290]', 'Dmax', '> 90%'),
  ('CC1CN(Cc2ccc(-c3cccc(C4CCC(=O)NC4=O)c3Cl)cc2)C(=O)C(C)O1 (centres unmarked) [Compound 267]', 'Dmax', '> 90%'),
  ('O=C1CCC(c2cccc(-c3ccc(C4COC(=O)N4)cc3)c2Cl)C(=O)N1 (centres unmarked) [Compound 106]', 'Dmax', '< 60%'),
  ('CN1CCN(CCOc2ccc(-c3cccc(C4CCC(=O)NC4=O)c3Cl)cc2)CC1 (centres unmarked) [Compound 104]', 'Dmax', '60 to 90%');

* * *

# target: VAV1 (Homo sapiens, UniProt P15498+Q96SW2)
# Construct: A heterozygous VAV1 C-terminal HiBiT knock-in pool was generated at Monte Rosa Therapeutics from a clonal Jurkat cell; endogenous in cells; host or cells: Jurkat clone stably expressing LgBiT, homozygous GSPT1-G575N; heterozygous VAV1-HiBiT knock-in pool
# test.protocol: VAV1 degradation activity, VAV1-HiBiT knock-in Jurkat luminescence assay (Example A, Table 1)
# Format: cell-based
# condition.notes: Jurkat, VAV1-HiBiT knock-in Jurkat cells, luminescence read at 6 and 24 hours; read-out: VAV1 Dmax %, class
# Procedure: Cells were plated at 10,000 cells per well using Multiflo (BioTek) or Multi Drop Combi (Thermo Fisher) in 384-well white solid bottom plates (Corning, 3570BC) in 25 ul volume in RPMI 1640 media (Thermo Fischer, 22400105) containing 10% FBS (Corning, 35-075-CV), 1% Penicillin/Streptomycin (ThermoFisher Scientific, 15140-122), and 1% Endurazine (Nano-Glo Endurazine Live Cell Substrate (Promega, N2571)). Cells were incubated for ˜16 hours at 37° C., 5% CO2. […]
This section presents compounds with their documented Dmax values.
measured.parameter: Dmax

INSERT INTO results (compound, target, result) VALUES
  ('O=C1CCC(c2cccc(-c3ccc(CN4C(=O)CC45CCC5)cc3)c2Cl)C(=O)N1 (centres unmarked)', 'VAV1 (Homo sapiens, UniProt P15498+Q96SW2)', '> 90%'),
  ('O=C1CCC(c2cccc(-c3ccc(NC(=O)c4ccon4)cc3)c2Cl)C(=O)N1 (centres unmarked)', 'VAV1 (Homo sapiens, UniProt P15498+Q96SW2)', '60 to 90%'),
  ('O=C1CCC(c2cccc(-c3ccc(-n4cccc(C(F)(F)F)c4=O)cc3)c2Cl)C(=O)N1 (centres unmarked)', 'VAV1 (Homo sapiens, UniProt P15498+Q96SW2)', '> 90%'),
  ('O=C1CCC(c2cccc(-c3ccc(N4C(=O)OCC45CCC5)cc3)c2Cl)C(=O)N1 (centres unmarked)', 'VAV1 (Homo sapiens, UniProt P15498+Q96SW2)', '> 90%'),
  ('CN1CCN(Cc2ccc(-c3cccc(C4CCC(=O)NC4=O)c3Cl)cc2)C1=O (centres unmarked)', 'VAV1 (Homo sapiens, UniProt P15498+Q96SW2)', '> 90%'),
  ('O=C1CCC(c2cccc(-c3cnc(N4CCCCC4=O)c(F)c3)c2Cl)C(=O)N1 (centres unmarked)', 'VAV1 (Homo sapiens, UniProt P15498+Q96SW2)', '60 to 90%'),
  ('O=C1CCC(c2cccc(-c3ccc(-n4ccc(C(F)(F)F)cc4=O)cc3)c2Cl)C(=O)N1 (centres unmarked)', 'VAV1 (Homo sapiens, UniProt P15498+Q96SW2)', '> 90%'),
  ('O=C1CCC(c2cccc(-c3ccc(N4C(=O)NCCC45CCC5)cc3)c2Cl)C(=O)N1 (centres unmarked)', 'VAV1 (Homo sapiens, UniProt P15498+Q96SW2)', '> 90%');
